- Read-out: Interleukin-8 (IL8), CXCL8 (gene 3576)
- ASSAY PROTOCOL: BSK_SAg_IL8: BioMAP Diversity Plus: SAg Assay for Interleukin-8 (IL8) Biomarker Activity (AID 2283094)
- CONDITION DESCRIPTION: primary human HUVEC with PBMC; actives raise or lower the signal
Calls of active or inactive are those of the source. How the source made its calls: active means hit-call score of the fitted dose curve at least 0.9, where 1 is the maximum; inactive means score below 0.9.
API: response.call in true (1) = active, false (0) = inactive

{"MOLECULE": "CC(=O)OCCC(C)C", "QUALITATIVE LABEL": "false (0)"}
{"MOLECULE": "CC(C)=CCCC(C)=CC=O", "QUALITATIVE LABEL": "false (0)"}
{"MOLECULE": "Cc1ccc(O)cc1", "QUALITATIVE LABEL": "false (0)"}
{"MOLECULE": "Cc1[nH]cnc1C[C@H]1CCc2c(C)c3ccccc3n2C1=O", "QUALITATIVE LABEL": "true (1)"}

# ---- query molecule ----
Which outcome was assigned to CCCCC(CC)COC(=O)CCCCCCCCC(=O)OCC(CC)CCCC (stereo not drawn) in this test?
false (0)
